Molecular target: α1G T-type Ca2+ channels (Homo sapiens)
Construct: expressed in transfected cells
Sequence (O43497 whole entry): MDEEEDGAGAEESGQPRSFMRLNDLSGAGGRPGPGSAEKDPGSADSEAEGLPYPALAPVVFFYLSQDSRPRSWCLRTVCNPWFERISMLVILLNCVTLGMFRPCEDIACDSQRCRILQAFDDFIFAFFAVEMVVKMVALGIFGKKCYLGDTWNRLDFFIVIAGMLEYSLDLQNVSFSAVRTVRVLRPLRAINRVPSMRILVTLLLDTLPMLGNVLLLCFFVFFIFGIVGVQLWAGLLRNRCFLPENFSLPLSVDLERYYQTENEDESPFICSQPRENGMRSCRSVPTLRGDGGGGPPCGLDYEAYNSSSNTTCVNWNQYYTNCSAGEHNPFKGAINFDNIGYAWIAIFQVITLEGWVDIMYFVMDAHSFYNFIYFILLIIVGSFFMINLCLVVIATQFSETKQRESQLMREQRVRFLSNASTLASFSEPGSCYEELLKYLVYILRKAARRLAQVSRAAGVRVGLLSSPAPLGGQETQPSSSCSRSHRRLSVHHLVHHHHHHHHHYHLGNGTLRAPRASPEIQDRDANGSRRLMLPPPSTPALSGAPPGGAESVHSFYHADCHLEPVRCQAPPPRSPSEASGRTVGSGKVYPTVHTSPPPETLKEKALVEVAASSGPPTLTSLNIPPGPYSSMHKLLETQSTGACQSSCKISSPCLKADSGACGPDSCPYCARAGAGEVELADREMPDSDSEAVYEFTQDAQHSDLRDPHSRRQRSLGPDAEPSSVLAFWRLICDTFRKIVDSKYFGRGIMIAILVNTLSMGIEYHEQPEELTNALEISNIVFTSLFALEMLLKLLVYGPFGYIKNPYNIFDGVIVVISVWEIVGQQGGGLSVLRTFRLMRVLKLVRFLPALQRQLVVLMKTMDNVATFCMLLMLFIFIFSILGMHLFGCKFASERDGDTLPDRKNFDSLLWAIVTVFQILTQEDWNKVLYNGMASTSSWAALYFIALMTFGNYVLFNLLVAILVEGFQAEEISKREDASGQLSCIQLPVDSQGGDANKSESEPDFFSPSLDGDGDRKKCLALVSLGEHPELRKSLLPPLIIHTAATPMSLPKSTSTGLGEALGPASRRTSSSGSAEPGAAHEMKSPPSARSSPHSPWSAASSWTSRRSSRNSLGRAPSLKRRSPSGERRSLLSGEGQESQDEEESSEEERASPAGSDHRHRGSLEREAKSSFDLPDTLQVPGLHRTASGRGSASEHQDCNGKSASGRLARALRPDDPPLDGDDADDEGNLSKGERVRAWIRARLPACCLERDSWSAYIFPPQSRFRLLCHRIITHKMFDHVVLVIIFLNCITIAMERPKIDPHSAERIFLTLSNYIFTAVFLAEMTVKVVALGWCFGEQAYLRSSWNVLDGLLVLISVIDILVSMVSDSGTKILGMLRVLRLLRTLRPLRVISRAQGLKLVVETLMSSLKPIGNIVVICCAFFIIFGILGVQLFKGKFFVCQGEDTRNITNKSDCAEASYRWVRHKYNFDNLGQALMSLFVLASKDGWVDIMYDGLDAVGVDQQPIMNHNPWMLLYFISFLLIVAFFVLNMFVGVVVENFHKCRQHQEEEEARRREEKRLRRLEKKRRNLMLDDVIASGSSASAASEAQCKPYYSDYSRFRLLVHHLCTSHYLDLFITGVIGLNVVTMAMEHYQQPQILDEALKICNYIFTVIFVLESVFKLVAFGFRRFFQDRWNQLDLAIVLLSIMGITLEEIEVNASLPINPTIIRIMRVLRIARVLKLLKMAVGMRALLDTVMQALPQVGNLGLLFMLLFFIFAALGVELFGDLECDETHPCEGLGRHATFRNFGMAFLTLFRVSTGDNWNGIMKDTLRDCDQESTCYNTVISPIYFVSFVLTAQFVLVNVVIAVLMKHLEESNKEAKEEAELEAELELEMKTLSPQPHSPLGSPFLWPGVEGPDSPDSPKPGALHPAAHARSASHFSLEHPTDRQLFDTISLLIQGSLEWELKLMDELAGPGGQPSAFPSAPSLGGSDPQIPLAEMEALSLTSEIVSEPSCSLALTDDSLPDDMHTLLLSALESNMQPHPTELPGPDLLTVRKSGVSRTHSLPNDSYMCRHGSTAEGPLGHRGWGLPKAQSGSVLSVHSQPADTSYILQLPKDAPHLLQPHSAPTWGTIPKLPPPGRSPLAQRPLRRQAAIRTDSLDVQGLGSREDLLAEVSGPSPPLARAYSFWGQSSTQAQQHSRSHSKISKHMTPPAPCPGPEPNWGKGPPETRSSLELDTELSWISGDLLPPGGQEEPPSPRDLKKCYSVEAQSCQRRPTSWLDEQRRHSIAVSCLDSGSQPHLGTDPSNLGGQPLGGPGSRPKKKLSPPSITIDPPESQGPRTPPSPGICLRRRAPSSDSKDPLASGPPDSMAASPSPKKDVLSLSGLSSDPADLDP
Test: Assay for inhibitory activity against T-type calcium channel using FDSS6000
Assay type: cell-based
Details: HEK293 cells expressing α1G and Kir2.1, KCl (70 mM) depolarization, fluo3/AM, read-out: FDSS (% Inhibition, at 10 μM)
endpoint_name: inhibition at 10 µM (%)

compound="CCCCC1CCCCN1CCCNC(=O)c1ccc2c(c1)C(=O)N(Cc1cccc(F)c1)C2 (centres unmarked)" endpoint_name="inhibition at 10 µM" units=% quantitative_result=49
compound="CC(C)C1CCCCN1CCCNC(=O)c1ccc2c(c1)C(=O)N(Cc1ccc(Br)cc1)C2 (centres unmarked)" endpoint_name="inhibition at 10 µM" units=% quantitative_result=51.7
compound="CC(C)C1CCCCN1CCCNC(=O)c1ccc2c(c1)C(=O)N(Cc1ccc(I)cc1)C2 (centres unmarked)" endpoint_name="inhibition at 10 µM" units=% quantitative_result=58.9
compound="CCCCC1CCCCN1CCCNC(=O)c1ccc2c(c1)C(=O)N(Cc1ccccc1)C2 (centres unmarked)" endpoint_name="inhibition at 10 µM" units=% quantitative_result=55.3
compound="CCCC1CCCCN1CCCNC(=O)c1ccc2c(c1)C(=O)N(Cc1ccc(I)cc1)C2 (centres unmarked)" endpoint_name="inhibition at 10 µM" units=% quantitative_result=53.8
compound="CC(C)C1CCCCN1CCCNC(=O)c1ccc2c(c1)C(=O)N(Cc1cccc(I)c1)C2 (centres unmarked)" endpoint_name="inhibition at 10 µM" units=% quantitative_result=60.7
compound="CCCC1CCCCN1CCCNC(=O)c1ccc2c(c1)C(=O)N(Cc1cccc(Br)c1)C2 (centres unmarked)" endpoint_name="inhibition at 10 µM" units=% quantitative_result=60.8
compound="O=C(NCCCN1CCCCC1c1ccccc1)c1ccc2c(c1)C(=O)N(Cc1cccc(Br)c1)C2 (centres unmarked)" endpoint_name="inhibition at 10 µM" units=% quantitative_result=55.2

====

Target: α1G T-type Ca2+ channels (Homo sapiens)
Construct: expressed in transfected cells
Test: Assay for inhibitory activity against T-type calcium channel using FDSS6000
Type: cell-based
Conditions: HEK293 cells expressing α1G and Kir2.1, KCl (70 mM) depolarization, fluo3/AM, read-out: FDSS (% Inhibition, at 10 μM)
endpoint_name: inhibition at 10 µM (%)

Some compounds with known inhibition at 10 µM results, for comparison:
compound="CC(C)C1CCCCN1CCCNC(=O)c1ccc2c(c1)C(=O)N(Cc1cccc(Cl)c1)C2 (centres unmarked)" quantitative_result=56.7
compound="CC(C)C1CCCCN1CCCNC(=O)c1ccc2c(c1)C(=O)N(Cc1cccc(Br)c1)C2 (centres unmarked)" quantitative_result=44.4
compound="CCC1CCCCN1CCCNC(=O)c1ccc2c(c1)C(=O)N(Cc1cccc(Br)c1)C2 (centres unmarked)" quantitative_result=46

P. CCCCC1CCCCN1CCCNC(=O)c1ccc2c(c1)C(=O)N(Cc1ccc(F)cc1)C2 (centres unmarked)
Q. O=C(NCCCN1CCCCC1)c1ccc2c(c1)C(=O)N(Cc1ccccc1)C2
R. O=C(NCCCN1CCCCC1)c1ccc2c(c1)C(=O)N(Cc1ccc(Br)cc1)C2
Ask | Hi! Can you put these in order of inhibition at 10 µM, lowest number first? Record the ranking as a list of labels in the requested order.
Reply | Q, R, P

I. CCCCC1CCCCN1CCCNC(=O)c1ccc2c(c1)C(=O)N(Cc1cccc(Cl)c1)C2 (centres unmarked)
II. O=C(NCCCN1CCCCC1c1ccccc1)c1ccc2c(c1)C(=O)N(Cc1ccc(Br)cc1)C2 (centres unmarked)
Ask | Between I and II , whose recorded inhibition at 10 µM is greater? Mark your answer with the label of the selected entry.
Reply | I
(I: 71.8%, II: 45.6%)
